- ASSAY_SYSTEM: HLA-DR DRB1*0701 (DR7) (Homo sapiens, UniProt P01903+P01911, A100R/A102G/A103Q/D57E/D86V/E43K/F76Y/K127E/L162R/M171V/P40G/Q125H/Q99D/R33Q/R42Y/R54Q/S133A/S66F/T210M/V115G/Y107V/Y59L/Y89S)
- ASSAY_OVERVIEW: biochemical
- Format: binding
- CONDITION_DESCRIPTION: DRB1 *0701
pIC50: −log10 of the molar value.
Outcome label depends on pIC50 relative to 7: at/above gives Criterion met, below gives Criterion not met.

COMPOUND_STRUCTURE_STRING	GROUP
CC(C)C[C@H](NC(=O)[C@@H](NC(=O)[C@H](CCC(=O)O)NC(=O)[C@H](C)NC(=O)[C@H](C)NC(=O)[C@H](C)NC(=O)[C@H](CCC(N)=O)NC(=O)[C@@H](NC(=O)[C@@H](NC(=O)[C@H](Cc1ccccc1)NC(=O)[C@H](C)NC(=O)[C@H](C)NC(=O)[C@@H](N)C(C)C)[C@@H](C)O)C(C)C)[C@@H](C)O)C(=O)N[C@@H](CO)C(=O)N[C@@H](CCC(=O)O)C(=O)O	Criterion not met
CSCC[C@H](NC(=O)CNC(=O)CNC(=O)[C@H](CCCNC(=N)N)NC(=O)[C@@H](NC(=O)[C@H](CCC(N)=O)NC(=O)[C@H](C)NC(=O)[C@@H](NC(=O)[C@@H](NC(=O)[C@H](CC(C)C)NC(=O)[C@H](Cc1c[nH]cn1)NC(=O)[C@H](Cc1ccc(O)cc1)NC(=O)[C@@H](N)CCCCN)[C@@H](C)O)C(C)C)C(C)C)C(=O)N[C@H](C(=O)N[C@@H](Cc1ccccc1)C(=O)O)C(C)C	Criterion not met
CC[C@H](C)[C@H](NC(=O)[C@@H](NC(=O)[C@H](CC(C)C)NC(=O)[C@H](CC(=O)O)NC(=O)[C@@H](NC(=O)[C@H](Cc1ccccc1)NC(=O)[C@H](C)NC(=O)[C@H](Cc1ccccc1)NC(=O)[C@H](CC(=O)O)NC(=O)[C@H](CC(C)C)NC(=O)[C@@H](N)C(C)C)[C@@H](C)O)[C@@H](C)O)C(=O)N[C@H](C(=O)N[C@@H](Cc1ccc(O)cc1)C(=O)N[C@@H](CCCNC(=N)N)C(=O)N[C@@H](CC(=O)O)C(=O)O)C(C)C	Criterion not met
CSCC[C@H](NC(=O)CNC(=O)[C@H](CC(C)C)NC(=O)[C@H](CCC(N)=O)NC(=O)[C@@H](NC(=O)[C@H](CC(C)C)NC(=O)[C@H](CCC(N)=O)NC(=O)CNC(=O)[C@@H](N)Cc1ccccc1)[C@@H](C)O)C(=O)N[C@@H](CCC(=O)O)C(=O)N[C@@H](CCC(N)=O)C(=O)N[C@@H](Cc1c[nH]cn1)C(=O)N[C@@H](Cc1ccc(O)cc1)C(=O)N[C@@H](CCC(=O)O)C(=O)N[C@@H](CC(C)C)C(=O)O	Criterion not met
CC[C@H](C)[C@H](NC(=O)[C@H](CO)NC(=O)[C@H](CC(N)=O)NC(=O)[C@H](C)NC(=O)[C@H](CC(C)C)NC(=O)[C@H](CCC(=O)O)NC(=O)[C@H](Cc1ccccc1)NC(=O)[C@@H](N)C(C)C)C(=O)N[C@H](C(=O)N[C@@H](CC(C)C)C(=O)N1CCC[C@H]1C(=O)N[C@@H](Cc1ccccc1)C(=O)N[C@@H](CC(=O)O)C(=O)N[C@@H](CS)C(=O)N[C@@H](CCCNC(=N)N)C(=O)O)C(C)C	Criterion met
CC[C@H](C)[C@H](NC(=O)[C@H](CCC(=O)O)NC(=O)[C@@H](NC(=O)[C@H](Cc1ccc(O)cc1)NC(=O)[C@H](CCC(=O)O)NC(=O)[C@@H](N)CCC(=O)O)C(C)C)C(=O)N[C@@H](CCCNC(=N)N)C(=O)N[C@@H](CCC(N)=O)C(=O)N[C@H](C(=O)NCC(=O)N[C@@H](CC(=O)O)C(=O)N[C@@H](Cc1ccccc1)C(=O)N[C@@H](Cc1c[nH]cn1)C(=O)O)C(C)C	Criterion not met
CC[C@H](C)[C@H](NC(=O)[C@@H](NC(=O)[C@H](Cc1c[nH]cn1)NC(=O)[C@@H](N)CC(C)C)C(C)C)C(=O)N[C@@H](CO)C(=O)N[C@@H](CC(N)=O)C(=O)N[C@@H](CC(=O)O)C(=O)N[C@H](C(=O)N[C@@H](CS)C(=O)N[C@@H](C)C(=O)N[C@@H](CCC(N)=O)C(=O)N[C@H](C(=O)N[C@@H](Cc1c[nH]cn1)C(=O)N1CCC[C@H]1C(=O)N[C@@H](CCC(N)=O)C(=O)O)C(C)C)C(C)C	Criterion not met
CC[C@H](C)[C@H](NC(=O)[C@@H]1CCCN1)C(=O)N[C@@H](CC(C)C)C(=O)N[C@@H](CC(C)C)C(=O)N[C@@H](Cc1c[nH]c2ccccc12)C(=O)N[C@@H](CCC(N)=O)C(=O)N1CCC[C@H]1C(=O)N[C@H](C(=O)N1CCC[C@H]1C(=O)N[C@H](C(=O)N[C@@H](Cc1c[nH]cn1)C(=O)N[C@H](C(=O)N[C@H](C(=O)N1CCC[C@H]1C(=O)N[C@@H](CC(C)C)C(=O)O)C(C)C)[C@@H](C)O)C(C)C)[C@@H](C)CC	Criterion met

###

- ASSAY_SYSTEM: HLA-B*0702 (Homo sapiens, UniProt P01889)
- ASSAY_OVERVIEW: biochemical
- Format: binding
- CONDITION_DESCRIPTION: B*0702 binding affinity (IC50)
pIC50: −log10 of the molar value. No end group written: not given here.
Label satisfied when pIC50 is at or above 6; otherwise label not satisfied.

SEQUENCE_CONTENT	GROUP
APGPGPGTAL [APGPGPGTAL]	satisfied
APCNFFTSA	satisfied
QPRAPIRPI	not satisfied
CPTVQASKL	not satisfied
YPLTFGWCI	not satisfied
RPRGPGPGSEF	satisfied
RPQVPLRPI	satisfied

###

- ASSAY_SYSTEM: HLA-DR DRB1*1501 (DR15) (Homo sapiens, UniProt P01903+P01911)
- ASSAY_OVERVIEW: biochemical
- Assay type: binding
- CONDITION_DESCRIPTION: DRBI *1501

COMPOUND_STRUCTURE_STRING	QUALIFIER_SYMBOL	IC50 (nM)
CC[C@H](C)[C@H](NC(=O)[C@H](Cc1c[nH]c2ccccc12)NC(=O)[C@@H](NC(=O)[C@@H](NC(=O)[C@H](CO)NC(=O)[C@H](CC(C)C)NC(=O)[C@@H](N)[C@@H](C)O)C(C)C)[C@@H](C)O)C(=O)NCC(=O)N[C@@H](C)C(=O)N[C@@H](C)C(=O)N1CCC[C@H]1C(=O)N[C@@H](CC(C)C)C(=O)N[C@H](C(=O)N[C@@H](CC(C)C)C(=O)N[C@@H](CO)C(=O)O)[C@@H](C)CC	=	97
CC[C@H](C)[C@H](NC(=O)[C@H](CCCCN)NC(=O)[C@H](CCSC)NC(=O)[C@H](CC(=O)O)NC(=O)[C@H](CCCNC(=N)N)NC(=O)[C@H](CCC(=O)O)NC(=O)[C@H](CC(C)C)NC(=O)[C@H](CCCCN)NC(=O)[C@H](Cc1ccccc1)NC(=O)[C@@H](N)Cc1ccccc1)C(=O)N[C@@H](CC(N)=O)C(=O)N[C@@H](CS)C(=O)N[C@@H](CO)C(=O)NCC(=O)N[C@@H](CCCCN)C(=O)O	>	3490
CC[C@H](C)[C@H](NC(=O)[C@@H](N)CCCCN)C(=O)N[C@@H](Cc1ccccc1)C(=O)NCC(=O)N[C@@H](CO)C(=O)N[C@@H](CC(C)C)C(=O)N[C@@H](C)C(=O)N[C@@H](Cc1ccccc1)C(=O)N[C@@H](CC(C)C)C(=O)N1CCC[C@H]1C(=O)N[C@@H](CCC(=O)O)C(=O)N[C@@H](CO)C(=O)N[C@@H](Cc1ccccc1)C(=O)N[C@@H](CC(=O)O)C(=O)NCC(=O)N[C@@H](CC(=O)O)C(=O)N1CCC[C@H]1C(=O)N[C@@H](C)C(=O)O	=	2260
CSCC[C@H](NC(=O)[C@@H]1CCCN1C(=O)[C@H](CC(=O)O)NC(=O)[C@@H](N)Cc1ccc(O)cc1)C(=O)N[C@@H](Cc1ccccc1)C(=O)N[C@@H](CCCCN)C(=O)N[C@@H](Cc1ccc(O)cc1)C(=O)N[C@@H](Cc1c[nH]cn1)C(=O)N[C@@H](CC(C)C)C(=O)N[C@H](C(=O)N[C@H](C(=O)N[C@@H](C)C(=O)N[C@@H](CCC(N)=O)C(=O)N[C@H](C(=O)N[C@@H](CCCNC(=N)N)C(=O)O)C(C)C)C(C)C)[C@@H](C)O	=	1350
CSCC[C@H](NC(=O)CNC(=O)CNC(=O)[C@H](CCCNC(=N)N)NC(=O)[C@@H](NC(=O)[C@H](CCC(N)=O)NC(=O)[C@H](C)NC(=O)[C@@H](NC(=O)[C@@H](NC(=O)[C@H](CC(C)C)NC(=O)[C@H](Cc1c[nH]cn1)NC(=O)[C@H](Cc1ccc(O)cc1)NC(=O)[C@H](CCCCN)NC(=O)[C@H](Cc1ccccc1)NC(=O)[C@@H](N)CCSC)[C@@H](C)O)C(C)C)C(C)C)C(=O)O	=	1200
CC[C@H](C)[C@H](NC(=O)CNC(=O)[C@H](Cc1ccc(O)cc1)NC(=O)[C@H](CC(C)C)NC(=O)[C@H](CO)NC(=O)[C@H](CC(C)C)NC(=O)[C@H](CC(C)C)NC(=O)[C@H](CO)NC(=O)[C@@H](N)CC(C)C)C(=O)N[C@@H](Cc1c[nH]cn1)C(=O)N[C@@H](CCCCN)C(=O)N[C@@H](CCC(N)=O)C(=O)N[C@@H](CCCCN)C(=O)N[C@@H](CCC(=O)O)C(=O)N[C@@H](CCCCN)C(=O)O	=	58

Cited source: patent US20060079453A1
